FYI, the data here is from the supplement of paper PMC10567573.

B1: RBBP5 (parent)
chain: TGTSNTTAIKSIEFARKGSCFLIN

Variants of: B1
Measurement Description: protein stability index of a GFP-peptide fusion (GPS, HEK-293T) (PSI 1-6); higher = more stable;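 also: lentivirally expressed fusions sorted by FACS into six bins by GFP to DsRed ratio, PSI derived from sequencing read proportions per bin multiplied by bin number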
Run Parameters: c terminus: a fixed tail appended
Quantity Measured: protein stability index
Keep it simple and answer with nothing but the number.

Item under review: `TGTSNTTAIKSIEFARTGSCFLIN` . Reported protein stability index?
2.46

Can you handle `TGTSNTTAIKSNEFARKGSCFLIN` next?
2.67

Can you handle `TGTSNTTAIKSIEFARKGSCFLIG` next?
2.27

Can you handle `TGTSNTTAIKWIEFARKGSCFLIN` next?
2.77

Can you handle `TGTSMTTAIKSIEFARKGSCFLIN` next?
1.66

Can you handle `TGTSNTTAIKSAEFARKGSCFLIN` next?
2.94

Can you handle `TGTSNTTAIKSIWFARKGSCFLIN` next?
2.23

Can you handle `TGTSNITAIKSIEFARKGSCFLIN` next?
1.63

Can you handle `TGTSNTTAIMSIEFARKGSCFLIN` next?
1.94

Can you handle `TGTSNTTAIKSINFARKGSCFLIN` next?
1.75

Can you handle `TGTSNTTAIKSIEFARKGSCFLIK` next?
2.02

Can you handle `TGTSNYTAIKSIEFARKGSCFLIN` next?
1.87

Can you handle `TGTSNTTAIKIIEFARKGSCFLIN` next?
3.31

Can you handle `TGTSNTTAIKYIEFARKGSCFLIN` next?
1.32

Can you handle `TGTSNTTAIKSIEFARKGACFLIN` next?
1.62

Can you handle `TGTSNTTMIKSIEFARKGSCFLIN` next?
2.21

Can you handle `THTSNTTAIKSIEFARKGSCFLIN` next?
2.03

Can you handle `TGQSNTTAIKSIEFARKGSCFLIN` next?
2.11

Can you handle `TGTSNTTAIKSIEFARKGSCWLIN` next?
2.25

Can you handle `TGTSNTTAIKSIEFAEKGSCFLIN` next?
3

Can you handle `TGTSNTTAIKSIEFAVKGSCFLIN` next?
1.99

Can you handle `TGTSNTTAIKSIEFARKGSCFLQN` next?
3.31

Can you handle `TGTSNTTAIKSIEFARKWSCFLIN` next?
1.62

Can you handle `TGTSNTTAIKSIEFAKKGSCFLIN` next?
2.76

Can you handle `TGTSNWTAIKSIEFARKGSCFLIN` next?
1.74

Can you handle `TGTSNTTAIKSIEFARKGSCFPIN` next?
3.53

Can you handle `TGTSNTTAIKSIEFARKGSCTLIN` next?
3.5

Can you handle `TATSNTTAIKSIEFARKGSCFLIN` next?
2.02

Can you handle `TGMSNTTAIKSIEFARKGSCFLIN` next?
2.2

Can you handle `TGTSNTQAIKSIEFARKGSCFLIN` next?
2.66

Can you handle `TGTSRTTAIKSIEFARKGSCFLIN` next?
2.36

Can you handle `TGTSNTTAIKSIEFAFKGSCFLIN` next?
2.26

Can you handle `CGTSNTTAIKSIEFARKGSCFLIN` next?
1.53

Can you handle `TGTSNTTAVKSIEFARKGSCFLIN` next?
2.76

Can you handle `TGTSNTTAIKSIEFARKQSCFLIN` next?
2.28

Can you handle `TGTSNTTAIKSIECARKGSCFLIN` next?
2.53

Can you handle `TGTYNTTAIKSIEFARKGSCFLIN` next?
2.41

Can you handle `TGTSNTTAIKSIEFARSGSCFLIN` next?
2.47

Can you handle `TGTSYTTAIKSIEFARKGSCFLIN` next?
1.63

Can you handle `TGTSNTTAIKSIEHARKGSCFLIN` next?
2.73

Can you handle `TGTSNTTKIKSIEFARKGSCFLIN` next?
2.2

Can you handle `TGCSNTTAIKSIEFARKGSCFLIN` next?
1.98

Can you handle `TGTSNTTAIKSIEFARKGSCFIIN` next?
2.55

Can you handle `TGTSNTTAIKSIEFAGKGSCFLIN` next?
2.42

Can you handle `TGTSNTDAIKSIEFARKGSCFLIN` next?
2.3

Can you handle `TGTSNTTAIKSIEFARQGSCFLIN` next?
2.5
